Tested on: DeltatarO mutant
Assay: S. aureus survival, RN4220 and DeltatarO strains – OD600, teichoic acid synthesis inhibitors, primary screen (AID 463173)
Conditions: S. aureus RN4220 wild type/DeltatarO growth, OD600, 18 h, active compounds read low, screened at 18.75 µg/mL (by protocol)
Screen size: about 52,000 compounds; about 4,300 (8.3%) were called active. For the sample, actives were picked, then their nearest neighbours and some compounds at random.
Rule for this label: 1 (yes) means survival is less than 70%; 0 (no) means survival is at least 70%.

| compound | class-label |
| --- | --- |
| Cc1c(CC(=O)NCCc2ccccc2F)c(=O)oc2cc(O)c(Cl)cc12 | 1 (yes) |
| CCOc1ccccc1N(CC)C(=O)c1cc2c(=O)[nH]c3ccc(C)cc3c2s1 | 0 (no) |
| COc1cccc(Cc2nc3ccccc3nc2SCC(=O)N2CCCCC2C)c1 (stereo unspecified) | 0 (no) |
| Cc1ccc(N2CC3=C(C2=O)C(c2ccc(Br)cc2)NC(=O)N3C)cc1 (stereo unspecified) | 0 (no) |

Here is another compound to look at.
Consider the compound Cc1ccn2c(Nc3ccccc3C)c(-c3ccc(N4CCOCC4)cc3)nc2c1 . Is its survival strictly less than 70%? 0 (no)
